Record form. Attribute: Ki. Fill in for each entry.
Target: Mouse kidney cytidine deaminase (Mus musculus, UniProt P56389)
Construct: isolated and partially purified from mouse kidney acetone powder; tissue Sigma Chemical Co; host or cells: mouse kidney (acetone powder, buffer extract, ammonium sulfate fractionation)
Sequence (P56389 whole entry): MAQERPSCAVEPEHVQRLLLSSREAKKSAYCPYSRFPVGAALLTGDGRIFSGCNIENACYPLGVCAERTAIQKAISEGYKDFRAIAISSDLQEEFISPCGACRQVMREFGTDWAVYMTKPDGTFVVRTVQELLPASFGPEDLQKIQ
Assay: Cytidine deaminase inhibition, mouse kidney enzyme
Format: biochemical
Give bare numbers, in µM.

Would you mind giving Ki for every compound in the list below?
1. O=C1NCCCCN1C1C[C@H](O)[C@@H](CO)O1 (some centres unmarked)
2. O=C1CCNC(=O)N([C@@H]2O[C@H](CO)[C@@H](O)[C@H]2O)C1

0.2
10
